test: IRF3 reporter activation in THP-1 macrophages, cell-based, PMA-stimulated THP-1, luminescence (AID 1053176); conditions: PMA-differentiated THP-1, IRF3 reporter luminescence; hits give high values
// values below are reported fraction signal
Keep it simple and answer with nothing but the number.

- Fc1ccc(-c2ncn(CCCN3CCOCC3)c2-c2ccncc2)cc1: -0.0075

fraction signal reported for this compound CN(c1ccc(NC(=O)Nc2ccc(OC(F)(F)F)cc2)cc1)c1ccnc(Nc2cccc(S(N)(=O)=O)c2)n1 : -0.001

fraction signal reported for this compound CCCN1CCC(Oc2cc(Nc3nc(Nc4cccc(F)c4C(N)=O)c4cc[nH]c4n3)c(OC)cc2Cl)CC1 : 0.0095

fraction signal reported for this compound Cc1ccc2c(c1)c(C1=C(c3cn(C)c4ccccc34)C(=O)NC1=O)cn2C : -0.003

fraction signal reported for this compound Cn1cc(C2=C(c3cn(CCCN=C(N)N)c4ccccc34)C(=O)NC2=O)c2ccccc21 : -0.005

fraction signal reported for this compound CCN(CC)Cc1ccc(Nc2nccc(-c3cnn4ncccc34)n2)cc1 : 0.0075

fraction signal reported for this compound CNCC1CCn2c(c(C3=C(c4cn(C)c5ccccc45)C(=O)NC3=O)c3ccccc32)C1 (centres undefined) : -0.0115

fraction signal reported for this compound O=C(NC1NNC2CC(c3ccccc3)CCC21)C1CC1 (centres undefined) : 0.012

fraction signal reported for this compound Cn1cc(C2=C(c3cn(C)c4cc(C(=O)O)ccc34)C(=O)NC2=O)c2ccccc21 : 0.0035

fraction signal reported for this compound COc1ccc2c(-c3ccnc(Nc4cccc(OC(F)(F)F)c4)n3)cnn2n1 : -0.005

fraction signal reported for this compound Nc1c(C(=O)c2ccccc2)cnn1-c1ccc(F)cc1 : -0.0025

fraction signal reported for this compound O=C(Nc1ccc(Oc2ccc3nc(NC(=O)c4ccccc4)[nH]c3c2)cc1)Nc1cc(C(F)(F)F)ccc1F : -0.006

* * *

assay: stimulators of insulin release from INS-1E, primary screen, cell-based, 5 mM glucose, NPC library (AID 1117329); conditions: rat INS-1E insulin secretion, at 10 µM; also: reference of the scale not given here
The source made the active and inactive calls.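 The calls were made as follows: active = compound raises insulin release from rat beta cells at 5 mM glucose, no numeric limit stated; inactive = the rest.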
Thanks in advance; please answer with one of these: active, inactive

- O=S(c1cc(Cl)cc(Cl)c1O)c1cc(Cl)cc(Cl)c1O: inactive
- CC(C)=CCC/C(C)=C/CC/C(C)=C/C(=O)OCC(=O)[C@@]1(O)CC[C@H]2[C@@H]3CCC4=CC(=O)C=C[C@]4(C)[C@H]3[C@@H](O)C[C@@]21C: inactive
- CC(C)(C)c1nnc(NS(=O)(=O)c2ccc(N)cc2)s1: inactive
- CCCCCCCCOc1ccc(C(=O)c2ccccc2)c(O)c1: inactive
- Cc1cn([C@H]2C[C@H](F)[C@@H](CO)O2)c(=O)[nH]c1=O: inactive
- CC(C)(C)NC[C@H](O)COc1nsnc1N1CCOCC1: inactive
- COc1ccccc1N1CCN(CC(O)COc2cc(OC)c(OC)c(OC)c2)CC1 (stereo not given): inactive
- COC(=O)c1cc(S(C)(=O)=O)ccc1OC: inactive

Inquiry: Test call, this compound: Cc1c(Cn2ccnc2)c2ccccc2n1CCC(=O)O
Reply text: inactive

Inquiry: Test call, this compound: CCS(=O)(=O)c1ccc(OC)c(C(=O)OC)c1
Reply text: inactive

Inquiry: Test call, this compound: CC(C(=O)O)c1ccc(/C=C2\CCCCC2=O)cc1 (stereo not given)
Reply text: inactive

# credit: PubChem BioAssay
